Target: human recombinant DP9 (Homo sapiens, UniProt Q86TI2)
Sequence (Q86TI2 whole entry): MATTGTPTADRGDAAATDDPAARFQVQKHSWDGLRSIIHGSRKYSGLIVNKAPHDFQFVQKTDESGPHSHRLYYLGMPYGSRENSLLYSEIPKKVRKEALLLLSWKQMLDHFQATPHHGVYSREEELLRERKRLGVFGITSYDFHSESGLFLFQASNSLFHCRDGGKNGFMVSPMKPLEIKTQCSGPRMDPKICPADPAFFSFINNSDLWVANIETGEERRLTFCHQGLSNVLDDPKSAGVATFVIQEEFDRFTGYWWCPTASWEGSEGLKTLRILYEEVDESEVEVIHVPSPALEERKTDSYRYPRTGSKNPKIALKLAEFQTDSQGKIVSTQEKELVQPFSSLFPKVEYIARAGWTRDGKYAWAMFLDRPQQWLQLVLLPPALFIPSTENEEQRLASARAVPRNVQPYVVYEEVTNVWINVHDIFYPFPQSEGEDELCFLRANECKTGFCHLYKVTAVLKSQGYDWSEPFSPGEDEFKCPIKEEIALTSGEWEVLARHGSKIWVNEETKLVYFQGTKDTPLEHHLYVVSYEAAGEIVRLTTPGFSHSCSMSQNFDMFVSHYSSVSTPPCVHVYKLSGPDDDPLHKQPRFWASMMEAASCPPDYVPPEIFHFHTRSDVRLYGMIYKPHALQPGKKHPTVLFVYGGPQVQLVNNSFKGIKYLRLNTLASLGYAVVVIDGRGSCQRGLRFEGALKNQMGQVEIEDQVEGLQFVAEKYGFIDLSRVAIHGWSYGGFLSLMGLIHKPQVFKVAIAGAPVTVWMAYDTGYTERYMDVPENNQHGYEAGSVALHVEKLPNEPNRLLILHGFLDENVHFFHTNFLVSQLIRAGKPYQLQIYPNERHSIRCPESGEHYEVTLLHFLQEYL
Test: IC50 of DP9 inhibition, human recombinant enzyme (Gly-Pro-pNA substrate)
Settings: Gly-Pro-pNA 0.4 mM, HEPES pH 7.6, 30° C.

COMPOUND	IC50 (nM)
CC(C)(C)[C@H](N)C(=O)N1CC2CC2C1B(O)O (stereo partly drawn)	18.4
CC[C@H](C)[C@H](N)C(=O)N1CC2CC2C1B(O)O (stereo partly drawn)	10.8
CC(C)[C@H](N)C(=O)N1CC2CC2C1B(O)O (stereo partly drawn)	15.9

Values were extracted from patent US7625939B2.
